Compiled notes: published pIC50 values involving MAGL (Homo sapiens).
pIC50 is defined as minus the log10 of a concentration measured in mol/L.

### Prompt Using MAGL (Homo sapiens) as the test system, report measured pIC50 of "O=C(c1ccc2[nH]c3c(c2c1)CCCC3)N1CC(N2CCN(C(=O)c3nccs3)CC2)C1" .
### Response 6.20

### Prompt Write down measured pIC50 (MAGL (Homo sapiens)) for this molecule. "O=C1CO[C@H]2CCN(C(=O)N3CC(c4ccc(-c5ccc(F)cc5F)cc4)C3)C[C@H]2N1"
### Response 9.52

### Prompt Fetch value of pIC50 on MAGL (Homo sapiens) for "O=C(c1ccc(-c2cn(CC3(F)CC3)nn2)cc1)N1CCN(c2nc3nc(Cl)ccc3o2)CC1" .
Sequence (Q99685 whole entry, species assumed): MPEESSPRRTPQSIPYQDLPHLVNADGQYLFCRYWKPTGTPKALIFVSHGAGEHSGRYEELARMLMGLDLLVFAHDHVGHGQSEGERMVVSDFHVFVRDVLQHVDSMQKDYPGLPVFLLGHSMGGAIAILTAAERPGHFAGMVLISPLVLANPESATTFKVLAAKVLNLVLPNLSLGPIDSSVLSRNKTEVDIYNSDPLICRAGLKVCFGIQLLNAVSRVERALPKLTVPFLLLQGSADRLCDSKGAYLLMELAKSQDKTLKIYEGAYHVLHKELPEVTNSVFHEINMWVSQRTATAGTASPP
### Response 6.92

### Prompt GET pIC50 | system: MAGL (Homo sapiens) | item: "O=C(c1ccc2c(ccn2-c2ccc(F)cc2)c1)N1CC(N2CCN(c3cscn3)C(=O)C2)C1"
### Response 7.54

###

Ok so here's the combined literature set: IC50 for MAGL (Homo sapiens).
Express the result in nM but write the number alone.

### Prompt State, for MAGL (Homo sapiens), measured IC50 of the molecule listed here: "O=C(c1ccc2c(-c3ccccc3)c(-c3ccccc3)[nH]c2c1)N1CC(N2CCN(C(=O)c3nccs3)CC2)C1"
### Response 17

### Prompt Look up MAGL (Homo sapiens) data: IC50 of "O=C1CO[C@H]2CCN(C(=O)N3CC(c4ccc(-c5ccn[nH]5)cc4)C3)C[C@H]2N1" , then report it.
### Response 91.9

### Prompt Report value: IC50, system: MAGL (Homo sapiens), molecule: "O=C1CO[C@H]2CCN(C(=O)N3CC(c4ccc(N5CCCCC5)cc4)C3)C[C@H]2N1"
### Response 2

###

Assay read-out IC50 on MAGL (Homo sapiens); records merged from the literature.
# unit: nM | format: bare number

### Prompt # return recorded IC50 for entry "O=C(c1ccccc1)N1CC[C@H](NC2CN(C(=O)c3cc4cc(Br)ccc4s3)C2)C1"
### Response 480

### Prompt Indicate its recorded IC50; the compound in question is "O=C1CO[C@H]2CCN(C(=O)N3CC(OCc4ccc(C(F)(F)F)c(Oc5ccc(F)cc5)n4)C3)C[C@H]2N1"
### Response 10

### Prompt Given "Cn1cc(-c2cccc(C(F)(F)F)c2)c2ccc(C(=O)N3CC(N4CCN(C(=O)c5nccs5)CC4)C3)cc21" , respond with its IC50.
### Response 12

### Prompt Could you please provide reported IC50 for "CC(C)(C)Cn1cc(-c2ccc(C(=O)N3CCN(c4nc5nc(Cl)ccc5o4)CC3)cc2F)nn1" ? Thanks!
### Response 2

### Prompt Supply recorded IC50 for "Cc1nc2cc(C(=O)N3CC(C4CCN(C(=O)c5nccs5)CC4)C3)ccc2n1-c1ccccc1" here.
### Response 18.7

### Prompt Look up IC50 of "COc1ccc(F)c(C(=O)N2CCN3C[C@@](O)(c4ccc(F)c(Cl)c4)OC[C@@H]3C2)c1Cl" and report it.
### Response 15.9

### Prompt Annotate the compound O=C1CO[C@H]2CCN(C(=O)N3CCC(C(c4ccccc4)c4ccc(OCCF)cc4)CC3)C[C@H]2N1 (single isomer, unassigned) with its measured IC50.
### Response 0.2
